Quick list: GI50 per entry.
test system: OVCAR-4; assay: NCI tumour cell line growth inhibition, 48 h
The source made the active and inactive calls. Rule as the data show it: active = GI50 up to about 1.1 µM and inactive = higher.

A selection of reference data follows.
[
  {
    "MOLECULE": "COc1cc2c3c(c1)CCCN3CCC2",
    "GI50": "> 10 µM (inactive)"
  },
  {
    "MOLECULE": "Nc1ncnc2oc(-c3cccs3)nc12",
    "GI50": "> 100 µM (inactive)"
  }
]

Next, consider the following molecule.
Lookup: GI50 / OVCAR-4 / CC1=C(/C=C/Cl)CC(Cl)C(C)(Cl)C1 (stereo not drawn)
83.8 µM (inactive)

###

tested on: LXFL 529; experiment: NCI tumour cell line growth inhibition, 48 h
Activity calls are given as the source filed them. Rule as the data show it: active = GI50 up to about 1.1 µM and inactive = higher.
READOUT_TYPE: GI50

A selection of reference data follows.
[
  {
    "COMPOUND": "CCOc1ccc2c(c1)[n+]([O-])c(-c1ccccc1)c(N)[n+]2[O-]",
    "READOUT_TYPE": "GI50",
    "RESULT": "46.6 µM (inactive)"
  },
  {
    "COMPOUND": "O=S1(=O)NN=C(NCc2ccc(Cl)c(Cl)c2)c2ccccc21",
    "READOUT_TYPE": "GI50",
    "RESULT": "42.2 µM (inactive)"
  },
  {
    "COMPOUND": "Cc1ccc(NC(=O)c2c(C)nc(=O)n3c2N(/N=C/c2ccc(Cl)cc2)CC3)cc1",
    "READOUT_TYPE": "GI50",
    "RESULT": "16.8 µM (inactive)"
  },
  {
    "COMPOUND": "CC1=NN(c2ccccc2)C(=O)C1=C1SCCCS1",
    "READOUT_TYPE": "GI50",
    "RESULT": "34.6 µM (inactive)"
  },
  {
    "COMPOUND": "N=C(N)c1csc([C@@H]2O[C@H](CO)[C@@H](O)[C@H]2O)n1",
    "READOUT_TYPE": "GI50",
    "RESULT": "> 100 µM (inactive)"
  }
]

Can you look up the measured GI50 of O=C(Nc1ccc(Cl)cc1Cl)C(=O)C(C(=O)c1ccncc1)C1OC(=O)c2ccccc21 (stereo not drawn) for me?
> 100 µM (inactive)

Can you look up the measured GI50 of O=S1(=O)OCCOS(=O)(=O)C1(Br)Cc1ccccc1 for me?
> 100 µM (inactive)

Can you look up the measured GI50 of C#Cc1c(C)c(/C=C/C(C)=C/C(=O)OC)n(C)c1C for me?
99.8 µM (inactive)

Can you look up the measured GI50 of COc1cc(C(=O)C(CO)Oc2ccccc2OC)ccc1O (stereo not drawn) for me?
> 100 µM (inactive)

Can you look up the measured GI50 of CC1=C(C(=O)Nc2cccc(C(F)(F)F)c2)C(c2ccccc2F)C(C(=O)Nc2cccc(C(F)(F)F)c2)=C(C)N1 for me?
5.57 µM (inactive)

Can you look up the measured GI50 of c1cc2ccc1C1NCCCN1CCN1CCCNC1c1ccc(cc1)C1NCCCN1CCN1CCCNC21 (stereo not drawn) for me?
78.7 µM (inactive)

Can you look up the measured GI50 of O=C(O)CN(c1ccc(Cl)cc1)S(=O)(=O)c1ccccc1 for me?
> 100 µM (inactive)

Can you look up the measured GI50 of COc1ccc(-c2cc(=O)c3cc(O)ccc3o2)c(OC)c1OC for me?
30.6 µM (inactive)

Cited source: ChEMBL document CHEMBL1201862
